biological target: Peroxisome proliferator-activated receptor alpha (Homo sapiens); assay: Efficacy against human PPARalpha expressed in HepG2 cells relative to Wy-14,643; type: cell-based
assay_metric: Efficacy

Solved cases (4 shown):
molecule	Efficacy
O=C(O)[C@H](Cc1ccccc1)Oc1ccc(-c2cccs2)cc1	93.2
CCC[C@H](Oc1ccc2ccccc2c1)C(=O)O	95.6
CCC[C@@H](OCc1ccc(-c2ccc(Cl)cc2)cc1)C(=O)O	36.6
CC(C)(Oc1ccc(Cl)cc1)C(=O)O	89.7

A = O=C(O)[C@@H](Cc1ccccc1)Oc1ccc(Cl)cc1
B = O=C(O)[C@H](Cc1ccccc1)Oc1ccc(-c2ccccc2)cc1
C = CCC[C@H](OCc1ccc(-c2ccc(Cl)cc2)cc1)C(=O)O
D = O=C(O)[C@H](Cc1ccccc1)Oc1ccc(C(F)(F)F)cc1
Q) Put the compounds in ascending order of Efficacy. Respond with an ordered listing of the labels, as requested.
A) A, C, D, B

###

Target: Peroxisome proliferator-activated receptor alpha (Homo sapiens, UniProt Q07869)
Sequence (Q07869 whole entry): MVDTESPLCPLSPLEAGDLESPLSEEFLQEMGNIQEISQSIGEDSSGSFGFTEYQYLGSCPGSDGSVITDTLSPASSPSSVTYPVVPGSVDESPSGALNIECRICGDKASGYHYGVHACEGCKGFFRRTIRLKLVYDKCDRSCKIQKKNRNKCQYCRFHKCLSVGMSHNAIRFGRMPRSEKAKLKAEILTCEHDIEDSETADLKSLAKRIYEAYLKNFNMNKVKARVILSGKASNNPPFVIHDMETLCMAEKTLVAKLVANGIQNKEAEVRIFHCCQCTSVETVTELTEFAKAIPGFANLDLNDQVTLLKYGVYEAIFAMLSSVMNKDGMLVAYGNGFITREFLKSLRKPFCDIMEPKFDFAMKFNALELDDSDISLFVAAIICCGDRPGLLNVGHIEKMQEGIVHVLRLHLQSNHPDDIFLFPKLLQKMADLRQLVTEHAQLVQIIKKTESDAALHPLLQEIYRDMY
Test: Effective concentration against human PPARalpha expressed in HepG2 cells
Assay type: cell-based
pEC50: −log10 of the molar value.
assay_metric: pEC50

Solved cases (5 shown):
compound	pEC50
CC(=O)c1ccc(O[C@@H](Cc2ccccc2)C(=O)O)cc1	4.87
O=C(O)[C@@H](Cc1ccccc1)Oc1ccc(Cl)cc1	4.96
CCC[C@H](OCc1ccc(-c2ccc(Cl)cc2)cc1)C(=O)O	5.41
O=C(O)[C@H](Cc1ccccc1)Oc1ccc2ccccc2c1	5.85
O=C(O)[C@H](Cc1ccccc1)Oc1ccc(Cl)cc1	5.41

a = O=C(O)[C@H](Cc1ccccc1)Oc1ccc(C(F)(F)F)cc1
b = CC(C)(Oc1ccc(Cl)cc1)C(=O)O [CLOFIBRIC ACID]
Q) Which entry has a larger number for pEC50, a or b ? Refer to your chosen entry by its label in the reply.
A) a
(a: 6.30, b: 4.40)

A = CCC[C@@H](OCc1ccc(-c2ccc(Cl)cc2)cc1)C(=O)O
B = CCC[C@H](Oc1ccc2ccccc2c1)C(=O)O
C = O=C(O)[C@H](Cc1ccccc1)Oc1ccc(-c2cccs2)cc1
D = O=C(O)[C@H](Cc1ccccc1)Oc1ccc(CO)cc1
Q) Order the records by pEC50, with each subsequent value no larger than the one before. Respond with an ordered listing of the labels, as requested.
A) C, A, B, D
(C: 6.05, A: 5.40, B: 5.08, D: 4.54)

I = COc1ccc(O[C@@H](Cc2ccccc2)C(=O)O)cc1
II = CCc1ccc(O[C@@H](Cc2ccccc2)C(=O)O)cc1
Q) Given I and given II , which shows the smaller recorded pEC50? Refer to your chosen entry by its label in the reply.
A) I
(I: 5.60, II: 6.15)
